Value source: ChEMBL document CHEMBL3739328

- Experimental System: Alpha-1A adrenergic receptor (Homo sapiens)
- Sequence (P35348 whole entry): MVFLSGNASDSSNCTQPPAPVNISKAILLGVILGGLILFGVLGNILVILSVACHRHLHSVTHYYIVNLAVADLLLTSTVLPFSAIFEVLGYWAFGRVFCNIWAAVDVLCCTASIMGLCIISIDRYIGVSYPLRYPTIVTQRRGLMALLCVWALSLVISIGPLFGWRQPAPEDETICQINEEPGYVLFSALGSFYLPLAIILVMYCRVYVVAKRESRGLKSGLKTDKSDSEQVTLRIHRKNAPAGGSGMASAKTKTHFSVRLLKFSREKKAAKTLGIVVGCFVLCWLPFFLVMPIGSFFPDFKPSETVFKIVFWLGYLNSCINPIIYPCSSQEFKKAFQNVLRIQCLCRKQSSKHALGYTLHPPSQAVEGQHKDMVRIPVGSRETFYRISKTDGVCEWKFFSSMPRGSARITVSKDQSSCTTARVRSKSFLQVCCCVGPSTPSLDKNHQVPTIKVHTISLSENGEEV
Measured Metric: log10 IC50 (log10 of the value in nM)
All values: base-10 log of IC50 in nM.

// worked examples, log10 IC50 included
| Compound | log10 IC50 |
| --- | --- |
| COc1ccccc1N1CCN(CC(O)COc2cccc3ccccc23)CC1 (stereo not drawn) | 2.74 |
| CC(=O)c1ccc(N2CCN(CCc3ccc(CN4C(=O)c5ccccc5C4=O)cc3)CC2)cc1 | 1.15 |
| O=C1c2ccccc2C(=O)N1Cc1ccc(CCN2CCN(c3ccc(C(F)(F)F)cc3)CC2)cc1 | 1.82 |
| O=C1c2ccccc2C(=O)N1Cc1ccc(CCN2CCN(c3ccccn3)CC2)cc1 | 1.70 |
| Cc1ccc(Cl)cc1N1CCN(CCc2ccc(CN3C(=O)c4ccccc4C3=O)cc2)CC1 | 1.54 |
| CCOc1ccccc1N1CCN(CCc2ccc(CN3C(=O)c4ccccc4C3=O)cc2)CC1 | 1.51 |
| Cc1ccccc1N1CCN(CCc2ccc(CN3C(=O)c4ccccc4C3=O)cc2)CC1 | 2.36 |

Q) Tell me its log10 IC50 given O=C1c2ccccc2C(=O)N1Cc1ccc(CCN2CCN(c3ccccc3Cl)CC2)cc1 as the entry.
A) 1.18

====

- Experimental System: Alpha-1D adrenergic receptor (Homo sapiens)
- Sequence (P25100 whole entry): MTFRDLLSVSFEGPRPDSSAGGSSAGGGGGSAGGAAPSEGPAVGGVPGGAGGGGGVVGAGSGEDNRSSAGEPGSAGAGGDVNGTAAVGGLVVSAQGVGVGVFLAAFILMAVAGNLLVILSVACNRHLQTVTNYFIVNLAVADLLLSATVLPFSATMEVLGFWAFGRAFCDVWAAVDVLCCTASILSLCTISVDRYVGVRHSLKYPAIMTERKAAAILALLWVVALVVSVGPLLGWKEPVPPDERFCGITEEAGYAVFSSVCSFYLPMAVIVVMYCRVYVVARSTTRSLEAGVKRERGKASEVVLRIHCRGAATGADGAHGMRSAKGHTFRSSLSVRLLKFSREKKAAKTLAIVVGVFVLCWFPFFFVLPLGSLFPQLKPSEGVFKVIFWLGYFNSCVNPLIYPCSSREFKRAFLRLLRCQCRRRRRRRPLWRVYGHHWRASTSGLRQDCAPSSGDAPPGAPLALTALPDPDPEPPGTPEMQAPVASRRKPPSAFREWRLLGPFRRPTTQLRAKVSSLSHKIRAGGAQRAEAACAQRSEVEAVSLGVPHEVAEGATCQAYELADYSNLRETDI
Measured Metric: IC50 (nM)
State the answer as a number, implicitly in nM.

| Molecule | Measured Metric | Reported Result |
| --- | --- | --- |
| N#Cc1ccc(N2CCN(CCc3ccc(CN4C(=O)c5ccccc5C4=O)cc3)CC2)cc1 | IC50 | 63.5 |
| COc1ccc(N2CCN(CCc3ccc(CN4C(=O)c5ccccc5C4=O)cc3)CC2)cc1 | IC50 | 1860 |
| Cc1ccc(Cl)cc1N1CCN(CCc2ccc(CN3C(=O)c4ccccc4C3=O)cc2)CC1 | IC50 | 31.3 |
| O=C1c2ccccc2C(=O)N1Cc1ccc(CCN2CCN(c3ccccc3)CC2)cc1 | IC50 | 1760 |
| O=C1c2ccccc2C(=O)N1Cc1ccc(CCN2CCN(c3ccccc3Cl)CC2)cc1 | IC50 | 36.6 |
| Cc1ccccc1N1CCN(CCc2ccc(CN3C(=O)c4ccccc4C3=O)cc2)CC1 | IC50 | 80600 |

Q) Using known records, supply IC50 for O=C1c2ccccc2C(=O)N1Cc1ccc(CCN2CCN(c3ccc(F)cc3)CC2)cc1
A) 122

Q) Give recorded IC50. O=C1c2ccccc2C(=O)N1Cc1ccc(CCN2CCN(c3ccc(Br)cc3)CC2)cc1
A) 7430

Q) Output IC50 of COc1ccccc1N1CCN(CC(O)COc2cccc3ccccc23)CC1 (centres undefined)
A) 55.2

====

- Organism: Homo sapiens
- Test Description: Selectivity ratio of IC50 for adrenergic alpha1B receptor (unknown origin) to IC50 for adrenergic alpha1D receptor (unknown origin)
Record t whenever Ratio IC50 is at 2 or higher; record f when lower.

See these solved cases before continuing.
| Compound Smiles | Label Value |
| --- | --- |
| O=C1c2ccccc2C(=O)N1Cc1ccc(CCN2CCN(c3ccc(C(F)(F)F)cc3)CC2)cc1 | f |
| N#Cc1ccc(N2CCN(CCc3ccc(CN4C(=O)c5ccccc5C4=O)cc3)CC2)c(F)c1 | f |

Q) I'd appreciate it if you could say whether O=C1c2ccccc2C(=O)N1Cc1ccc(CCN2CCN(c3ccc(Br)cc3)CC2)cc1 has Ratio IC50 at least equal to 2.
A) f

Q) Reported Ratio IC50 at or above 2? Cc1ccc(Cl)cc1N1CCN(CCc2ccc(CN3C(=O)c4ccccc4C3=O)cc2)CC1
A) f

Q) In plain terms: is recorded Ratio IC50 at least 2 for COc1ccc(N2CCN(CCc3ccc(CN4C(=O)c5ccccc5C4=O)cc3)CC2)cc1 ?
A) f

Q) Please indicate if the recorded Ratio IC50 for O=C1c2ccccc2C(=O)N1Cc1ccc(CCN2CCN(c3ccc(F)cc3F)CC2)cc1 meets or exceeds 2.
A) f

Q) Can O=C1c2ccccc2C(=O)N1Cc1ccc(CCN2CCN(c3ccccc3C(F)(F)F)CC2)cc1 be said to have Ratio IC50 at or above 2?
A) f

Q) Reported Ratio IC50 reaches at least 2 for CCOc1ccccc1N1CCN(CCc2ccc(CN3C(=O)c4ccccc4C3=O)cc2)CC1 ?
A) f

Q) Say whether N#Cc1ccccc1N1CCN(CCc2ccc(CN3C(=O)c4ccccc4C3=O)cc2)CC1 shows Ratio IC50 of 2 or more.
A) t

Q) Is the recorded value of Ratio IC50 equal to or greater than 2 for this molecule? O=C1c2ccccc2C(=O)N1Cc1ccc(CCN2CCN(Cc3ccccc3)CC2)cc1
A) t

====

- Experimental System: Alpha-1B adrenergic receptor (Homo sapiens, UniProt P35368)
- Sequence (P35368 whole entry): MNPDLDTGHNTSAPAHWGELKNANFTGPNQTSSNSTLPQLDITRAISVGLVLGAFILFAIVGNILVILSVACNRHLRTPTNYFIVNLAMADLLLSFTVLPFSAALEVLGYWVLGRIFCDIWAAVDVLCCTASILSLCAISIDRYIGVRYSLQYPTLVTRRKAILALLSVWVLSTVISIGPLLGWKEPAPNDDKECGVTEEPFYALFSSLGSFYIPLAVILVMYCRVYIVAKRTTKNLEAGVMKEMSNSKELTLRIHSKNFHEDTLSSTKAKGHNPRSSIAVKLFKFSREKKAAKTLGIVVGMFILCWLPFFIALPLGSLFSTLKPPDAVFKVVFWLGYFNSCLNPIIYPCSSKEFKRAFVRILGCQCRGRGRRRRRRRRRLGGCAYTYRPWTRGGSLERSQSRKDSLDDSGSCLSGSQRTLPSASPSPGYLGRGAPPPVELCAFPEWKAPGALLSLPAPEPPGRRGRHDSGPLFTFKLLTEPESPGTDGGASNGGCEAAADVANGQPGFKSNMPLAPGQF
Item-by-item account of IC50

Example compounds with recorded IC50:
| Compound | Reported Result |
| --- | --- |
| O=C1c2ccccc2C(=O)N1Cc1ccc(CCN2CCN(c3ccc(Cl)cc3)CC2)cc1 | 794 nM |
| Cc1ccc(Cl)cc1N1CCN(CCc2ccc(CN3C(=O)c4ccccc4C3=O)cc2)CC1 | 31.6 nM |
| O=C1c2ccccc2C(=O)N1Cc1ccc(CCN2CCN(c3ccc(F)cc3)CC2)cc1 | 684 nM |

Q) Look up and report measured IC50 for this entry: COc1ccccc1N1CCN(CC(O)COc2cccc3ccccc23)CC1 (centres undefined)
A) 634 nM

====

Listed below: pIC50 values for each entry.
- Experimental System: Alpha-1B adrenergic receptor (Homo sapiens, UniProt P35368)
- Sequence (P35368 whole entry): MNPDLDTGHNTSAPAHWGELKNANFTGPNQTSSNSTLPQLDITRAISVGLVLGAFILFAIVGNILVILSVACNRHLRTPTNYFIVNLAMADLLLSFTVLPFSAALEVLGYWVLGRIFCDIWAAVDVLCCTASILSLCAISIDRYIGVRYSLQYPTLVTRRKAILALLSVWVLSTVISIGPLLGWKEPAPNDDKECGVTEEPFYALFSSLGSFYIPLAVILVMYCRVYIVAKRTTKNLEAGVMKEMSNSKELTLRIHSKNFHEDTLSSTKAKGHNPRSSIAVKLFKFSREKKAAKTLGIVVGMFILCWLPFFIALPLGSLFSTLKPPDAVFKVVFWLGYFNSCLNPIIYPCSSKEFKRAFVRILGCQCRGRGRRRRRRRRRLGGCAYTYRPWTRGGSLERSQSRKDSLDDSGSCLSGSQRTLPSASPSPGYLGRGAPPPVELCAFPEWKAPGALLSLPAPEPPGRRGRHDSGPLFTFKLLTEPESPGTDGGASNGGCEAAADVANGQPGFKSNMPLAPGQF
# pIC50 = -log10(concentration in molar units)

| Compound Smiles | Reported Result |
| --- | --- |
| O=C1c2ccccc2C(=O)N1Cc1ccc(CCN2CCN(c3ccccn3)CC2)cc1 | 7.90 |
| O=C1c2ccccc2C(=O)N1Cc1ccc(CCN2CCN(c3ccccc3C(F)(F)F)CC2)cc1 | 6.60 |
| O=C1c2ccccc2C(=O)N1Cc1ccc(CCN2CCN(c3ccc(C(F)(F)F)cc3)CC2)cc1 | 7.71 |
| Cc1ccccc1N1CCN(CCc2ccc(CN3C(=O)c4ccccc4C3=O)cc2)CC1 | 6.02 |
| N#Cc1ccc(N2CCN(CCc3ccc(CN4C(=O)c5ccccc5C4=O)cc3)CC2)cc1 | 6.11 |

Q) Output measured pIC50 for this item: N#Cc1ccc(N2CCN(CCc3ccc(CN4C(=O)c5ccccc5C4=O)cc3)CC2)c(F)c1
A) 7.46

Q) Please indicate pIC50 recorded for CCOc1ccccc1N1CCN(CCc2ccc(CN3C(=O)c4ccccc4C3=O)cc2)CC1
A) 6.36

Q) Given O=C1c2ccccc2C(=O)N1Cc1ccc(CCN2CCN(c3ccc(Br)cc3)CC2)cc1 , respond with its pIC50.
A) 6.00

Q) Give the reported value of pIC50 for this record: O=C1c2ccccc2C(=O)N1Cc1ccc(CCN2CCN(Cc3ccccc3)CC2)cc1
A) 6.00
